// data source = the supplement of paper PMC10567573

B1: TCEB3B (parent)
chain: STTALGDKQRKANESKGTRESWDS

# Variants of: B1
# METHOD NOTES: protein stability index of a GFP-peptide fusion (GPS, HEK-293T) (PSI 1-6); higher = more stable;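 also: lentivirally expressed fusions sorted by FACS into six bins by GFP to DsRed ratio, PSI derived from sequencing read proportions per bin multiplied by bin number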
# EXPERIMENTAL CONDITIONS: c terminus: a fixed tail appended
Recorded protein stability index, one value per entry.
Answer with a bare number; do not write a unit.

IN: // protein stability index lookup, key: T3F
OUT: 3.32

IN: // protein stability index lookup, key: N13C
OUT: 3.83

IN: // protein stability index lookup, key: T3Y
OUT: 3.77

IN: // protein stability index lookup, key: R19K
OUT: 4.21

IN: // protein stability index lookup, key: L5G
OUT: 4.11

IN: // protein stability index lookup, key: S1K
OUT: 3.12

IN: // protein stability index lookup, key: T18C
OUT: 4.19

IN: // protein stability index lookup, key: G6S
OUT: 3.85

IN: // protein stability index lookup, key: S15Y
OUT: 3.64

IN: // protein stability index lookup, key: S15W
OUT: 3.72

IN: // protein stability index lookup, key: E20I
OUT: 4
